# Tested on: Hep G2 cells
# ASSAY_NAME: Cell viability, MTT colorimetric assay
# Type: cell-based
# STUDY_CONDITIONS: Hep G2, 48 h, 175 micro molar
Marks after values point to notes of the source that are not given here.

MOLECULE: COc1cc([C@@H]2Oc3cc([C@H]4Oc5cc(O)cc(O)c5C(=O)[C@@H]4OC(=O)c4cc(O)c(O)c(O)c4)ccc3O[C@H]2CO)ccc1O [SGB, 3-O-galloyl silybin B]
STUDY_TARGET: Hep G2 cells
Cell viability (% of control): 29 + 4.3^* % of control

MOLECULE: COc1cc([C@H]2Oc3cc([C@H]4Oc5cc(O)cc(O)c5C(=O)[C@@H]4OC(=O)c4cc(O)c(O)c(O)c4)ccc3O[C@@H]2CO)ccc1O [SGA, 3-O-galloyl silybin A]
STUDY_TARGET: Hep G2 cells
Cell viability (% of control): 38 + 5.7^* % of control

MOLECULE: COc1cc([C@H]2Oc3cc([C@H]4Oc5cc(O)cc(O)c5C(=O)[C@@H]4O)ccc3O[C@@H]2CO)ccc1O [SA, silybin A]
STUDY_TARGET: Hep G2 cells
Cell viability (% of control): 52 + 6.0^* % of control

MOLECULE: COc1cc([C@@H]2Oc3cc([C@H]4Oc5cc(O)cc(O)c5C(=O)[C@@H]4O)ccc3O[C@H]2CO)ccc1O [SB, silybin B]
STUDY_TARGET: Hep G2 cells
Cell viability (% of control): 45 + 5.1^* % of control

* * *

# Tested on: caspase-9
# ASSAY_NAME: Caspase-9 activity, colorimetric substrate Ac-LEHD-pNA
# Format: cell-based, human
# STUDY_CONDITIONS: Hep G2, 48 h, 150 micro molar; control 0.26

COMPOUND: COc1cc([C@@H]2Oc3cc([C@H]4Oc5cc(O)cc(O)c5C(=O)[C@@H]4O)ccc3O[C@H]2CO)ccc1O [SB, silybin B]
Caspase-9 (ΔOD 405nm): 0.67 ± 0.105 ΔOD 405nm
//
COMPOUND: COc1cc([C@H]2Oc3cc([C@H]4Oc5cc(O)cc(O)c5C(=O)[C@@H]4OC(=O)c4cc(O)c(O)c(O)c4)ccc3O[C@@H]2CO)ccc1O [SGA, 3-O-galloyl silybin A]
Caspase-9 (ΔOD 405nm): 0.80 ± 0.124 ΔOD 405nm
//
COMPOUND: COc1cc([C@@H]2Oc3cc([C@H]4Oc5cc(O)cc(O)c5C(=O)[C@@H]4OC(=O)c4cc(O)c(O)c(O)c4)ccc3O[C@H]2CO)ccc1O [SGB, 3-O-galloyl silybin B]
Caspase-9 (ΔOD 405nm): 0.89 ± 0.108 ΔOD 405nm
//
COMPOUND: COc1cc([C@H]2Oc3cc([C@H]4Oc5cc(O)cc(O)c5C(=O)[C@@H]4O)ccc3O[C@@H]2CO)ccc1O [SA, silybin A]
Caspase-9 (ΔOD 405nm): 0.96 ± 0.143 ΔOD 405nm

* * *

Quick list: Caspase-3 (ΔOD 405nm) per entry.
# Test system: caspase-3
# ASSAY_NAME: Caspase-3 activity, colorimetric substrate Ac-DEVD-pNA
# Type: cell-based, human
# STUDY_CONDITIONS: Hep G2, 48 h, 100 micro molar; control 0.38

TEST_SMILES: COc1cc([C@@H]2Oc3cc([C@H]4Oc5cc(O)cc(O)c5C(=O)[C@@H]4OC(=O)c4cc(O)c(O)c(O)c4)ccc3O[C@H]2CO)ccc1O
Caspase-3 (ΔOD 405nm): 0.78 ± 0.095 ΔOD 405nm
//
TEST_SMILES: COc1cc([C@H]2Oc3cc([C@H]4Oc5cc(O)cc(O)c5C(=O)[C@@H]4OC(=O)c4cc(O)c(O)c(O)c4)ccc3O[C@@H]2CO)ccc1O
Caspase-3 (ΔOD 405nm): 0.67 ± 0.084 ΔOD 405nm
//
TEST_SMILES: COc1cc([C@@H]2Oc3cc([C@H]4Oc5cc(O)cc(O)c5C(=O)[C@@H]4O)ccc3O[C@H]2CO)ccc1O
Caspase-3 (ΔOD 405nm): 0.53 ± 0.065 ΔOD 405nm
//
TEST_SMILES: COc1cc([C@H]2Oc3cc([C@H]4Oc5cc(O)cc(O)c5C(=O)[C@@H]4O)ccc3O[C@@H]2CO)ccc1O
Caspase-3 (ΔOD 405nm): 0.79 ± 0.107 ΔOD 405nm
